B1: TPR t1 (parent)
chain: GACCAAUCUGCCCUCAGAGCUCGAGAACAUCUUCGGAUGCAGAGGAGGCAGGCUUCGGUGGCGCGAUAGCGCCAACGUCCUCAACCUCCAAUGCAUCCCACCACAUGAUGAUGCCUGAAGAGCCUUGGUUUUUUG

- Variants of: B1
- EXPERIMENT DESCRIPTION: polymerase ribozyme fitness, log enrichment relative to wild type (log ratio); higher = more active; in vitro selection for triplet polymerase activity
RECORDED METRIC: polymerase ribozyme fitness (log ratio)

>>> obs_value("GACCAAUCUGCCCUCAGAGCUCGAGAACAUCUUCGGAUGCAGAGGAGGCAGGCUUCGGUGGCGCGAUAGCGCCAACGUCCUGAACCUCCAAUGCAUCCCACCACAUGAUGAUGUCUGAAGAGCCUUGGUUUUUUG")
-2.95
>>> obs_value("GACCAAUCAGCCCUAAGAGCUCGAGAACAUCUUCGGAUUCAGAGGAGGAAGGCUUUGGUGGCGCGAUAGCGCCAACGUCCUCAACCUCCAAUGCAUCCCACCACAUGAUGAUGCCUGAAGUGCCUUGGUUUUUUG")
0.6
>>> obs_value("GACCAAUCUGCCCUCAGAGCUCGAGAACAUCUUCGGAUGCAGAGGAGGCAGGCUUCGGUGUCGCGAUAGCGCCAACGUCCUCAACCUCCAAUGCAUCCCACCACAUGAUGAUUCCUGAAGAGCCUUGGUUUUUUG")
-1.12
>>> obs_value("GACCAAUCUGCCCUCAGGUCUCGAGAACAUCUUCGGAUGCAGAGGAGGCAGGCUUCGGUGGCGCGAUAGCGCAAACGUUCUCAACCUCCAAUGCAUCCCACCACAUGAUGAUGCCUGAAGAGCCUUGGUUUUUUG")
-1.75
>>> obs_value("GACCAAUCUGCCCUCAGAGCUCGAGAACAUCUUCGGAUGCAGAGGAGGCAGGCUUGGGUGGCACGAUAGCGCCAACGUCCUCAACCUCCAAUGCAUCCCACCACAUGAUGAUGCCUGAAGAGCCUUGGUUUUUUC")
-2.89
>>> obs_value("GACCAAUCUGCCCUCAGAGCUCGAGAACAUCUUCGGAUGCAGAAGAGGCAGGCUUCGGUAGCGCGAUAGCGCCAACGUCCUCAACCUCGAAUGCAUCCCAACAUAUGAUGAUGCCUGAAGAGCCUUGGUUUUUUG")
-2.79
>>> obs_value("GACCAAUCUGCCCUCAGCGCUCGAGAACAUCUUCGGAUGCAGAGGAGGCAGGCUUCGGUGGCGCGAUAGCUCCAACGGCCUCAACCUCCAAUGCAUCCCACCACAUGAUGAUGCCUGAAGAGCCUUGGUUUUUUG")
-4.63
>>> obs_value("GACCAAUCUGCCCUCAGAGCUCGAGAACAUCUUCGGAUGCAGAGGAGGCAGGCUUCGGUGGCGCGAUAGCGCCAACGUCCUCAACCUCCAAUGCAUCCCACCAGAUGAUGAUGGCUGAAAAGCCUCGGUUUUGUG")
-5.9
>>> obs_value("GACCAAUCUGCCCUCAGAGCUCGAGAACAUCUUCGGAUGCAGAGGAGGCAGGCUUCGGUGGCGCGAUAGCGCCAACGUACUCAACCUCAAAUGCAUCCCACCACAUGAUGAUGCCUGAAGAGCCUUGGUUUUUUG")
-3.43
>>> obs_value("GACCAAUCUGCCCUCAGAGCUCGAGAACAUCUUCGGAUGCAGAGGAGGCAGGCUUCGGUGGCGCGAUAGCGCCAACGUCCUCAACCUCCAAUGCAUCCCACCACAUGAUGAUGCCUGAAGGGCCUUGGUUUUUUU")
0.495
>>> obs_value("GACCAAUCUGCCCUCAGAGCUCGAGAACAUCUUCGGAUGCAGAGGAUGCAGGCUUUGGUGGCGCGAUAGCGCCAACGUCCUCAACCUCCAAUGCAUCCCACCACAUGAUGAUUCCUGAAGAGCCUUGGUUUUUUG")
-4.43
>>> obs_value("GACCAAUCUGCCCUCAGAGCUCGAGAACAUCUUCGGAUGCAGAGGAGACAGGCAUCGGUGGUGCGAUAGCGCCAACGUCCUUAAACUCCAAUGCAUCCCACCAAAUGAUGAUGCCUGAAGAGCCUUGGUUUUUUG")
-2.99
>>> obs_value("GACCAAUCUGCCCUCAGAGCUCGAGAACAUCUUCGGAUGCAGAGGAGACAGGCUUCGGUGGCGUGAUAGCGCCAACGUCCUCAACCUCCAAUGCAUCCCACCACAUGAUGGUGCCUGAAGAGCCUUGGUUUUUUG")
-0.284
>>> obs_value("GACCAAUCUGCCCUCAGAGCUCGAGAACAUCUUCGGAUGCAGAGGUGGCAGGAUUCGGUGGCGCGAUAGCGCCAACGUCCUCAACCUCCAAUGCAUCCCACCACAUGAUGAUGCCUGAAGAGCCUUGGUUUUUUG")
-0.885
>>> obs_value("GAUCAAUUUGCCCUCAGAGCUCGAGAACAUCUUCGGAUGCAGAGGAGGCAGGCUUCGGUGGCGCGAUAGCUCCAACGUCCUCAACCUUCAAUGCAUCCCACCACAUGAUGAUGCCUCAAGAGCCUUGGUUUUUUG")
-4.1
>>> obs_value("GACCAAUCUGCCCUCAGAGCUCGAGAACAUCUUCGGAUACAGAGGAGGCAGGCUUCGGUGGCGCGAUAGCGCCAACGUCCACAACCUUCAAUGCAUCCCACCACAUGAUGAUGCCUGAAGAGCCUUGGUUUUUUG")
-0.679
>>> obs_value("GACCAAUCUGCCCUCAGAGCUCGAGAACAUCUUCGGAUGAAGCGGAGGCAGGCUUCGGUGGCGCGAUAGCGCCAACGUCCUCAACCUCCAAUGCAUCCCACCACAUGAUGAUGCCUGAAGAGCCUUGGUUUUUUG")
-3.2
>>> obs_value("GACCAAUCUGCCCUCAGAGCUCGAGAACAUCUUCGGAUGCAGAGGAGGCAGGCUUCGGUGGCGCGAUAGCGCCAACGUCCUCAACCUCCAAUGCAUCCCACCACAUGAUGAGACCUGAAGAGCCCUGGUUUUUUG")
-2.43
>>> obs_value("GACCAAUCUGCCCUCAGAGCUCGAGAACAUCUUCGGAUGCAGAGGAGGCAGGCUACGGUGGCGCGAUAUCGCCAACGUCCUGAACCUCCAAUGCAUCCCACCACAUGAUGAUGCCUGAAGAGCCUUGGUUUUUUG")
0.171
>>> obs_value("GACCAAUCUGCCCUCAGAGCUCGAGAACAUCUUCGGAUGCAGAGGAGGCAGGCUUCGGUGGCGCGAUAGCGCCAACGUCCUCCACCUCCAAUGCAUCCCACCACAUGAUGAUGCGUGAAGAGCCUUGGUUUUUUG")
-1.92
>>> obs_value("GACCAAUCUGCCCUCAGAGCUCGAGAACAUGUUCGGAUGCAGAGGAGGCCGGCUUCGGUGGCGCGAUAGCGCCAACGUCCUCAACCUCCAAUGCAUCCCACCACAUGAUGAAGCCUGAAGAGCCUUGGUUUUUUG")
-6.45
>>> obs_value("GACCAAUCUGCCCUCAGAGCUCGAGAACAUCUUCGGAUGCAGAGGAGGCAGGCUUCUGUGGCGCGAUAGCGCCAACGUCCUCAACCUCCAAUGCUUCCCACCACAUGAUGAUGCCUGAAGUGCUUUGGUUUUUUG")
1.18
>>> obs_value("GACCAAUCUGCCCUCAGAGCUCGAGAACAUCUUCGGAUGCAGAGGAGGCAGGCUUCGGUGACGCGAUAGCGCCAACGUCCUCAACCUCCAAUGCAUCCCACCACAUGAUGGUGCCUGAAGAGCCUUGGUUUUUUG")
0.971
>>> obs_value("GACCAAUCUGCUCUCAGAGCUCGAGAACAUCUUCGGAUGCAGAGGAGCCAGGCUUCGGUGGCGCGAUAGCGGCAACGUCCUCAACCUCCAAUGCAUCCCACCACAUGAUGAUGCCUGAAGAGCCUUGGUUGUUUG")
-1.72
>>> obs_value("GACCAAUCUGCCCUCAGAGCUCGAGAACAUCUUCGGAUGCAGAGGAGGCAUGCUUCGUUGGCACGAUAGCGCCAACGUCCUCAACCUCCAAUGCAUCCCACCACAUGAUGAUGCCUCAAGAGCCUUGGUUUUUUG")
-6.73
>>> obs_value("GACCAAUCUGCACUCAGAGCUCGAGAACAUCUUCGGAUGCAGAGGAGGCAUGCUUCGGUGGCGCGAUAGCUCCAACGUCCUCAACCUCCAAUGCAUCCCACCACAUGAUGAUGCCUGAAGAGCCUUGGUUUUCUG")
-4.34
>>> obs_value("GACCAAUCUGCCCUCAGAGCUCGAGAACAUCUUCGGAUGCAUAGGAGGCAGGCUUCGGUGACGCGAUAGCGCCAACGUCCUCAACCUCCAAUGCAUCCCACCACAUGAUGAUGCCUGAAGAGCCUUGGUUUUUUG")
-1.21
>>> obs_value("GACCAAUCUGCCCUCAGAGCUCGAGUACAUCUUCGGAUGCAGAGGAGGCAGGUUUCGGUGGCGCGAUAGCGUCAACGUCCUCAACCUCCAAUGCAUCCCACCACAUGAUGAUGCCGGAAGAGCCUUGGUUUUUUG")
-6.07
>>> obs_value("GACCAAUCUGCCCUCAGAGCUUGAGAACAUCUUCGGAUGCAGAGGAGGCAAGCUUCGGUGCCGCGAUAGCGCCAACGUCCUCAACCUCCAAUGCAUCCCACCACAUGAAGAUGCCUCAAGAGCCUUGGUUUUUUG")
-7.16
>>> obs_value("GACGAAUCUGCCCUCAGAGCUCGAGAACAUCUUCGGAUGCAGAGGAGGCAGGCUUCGGUGGCGCGAUAGCGCCAACGUCCUCAACCUCCAAUGCAUCCCACCACAUGAUGAUGCAUGAAGAGCCUUGGUUUUUUG")
-3.11
>>> obs_value("GACCAAUCUGCCCUCAGAGCUCGAGAACGUCUUCGGAUGCAGAGGAGGCAGGCUUCGGUGGCGCGAUAGCGCCAACGUCCUCAACCUCCAAUGCAUCCCACCACAUGAUGAUGCCUGAAGAGCUUUGGUUUUUUG")
1.18
>>> obs_value("GACCAAUCUGCCCUAAGAGCUCGAGAACAUCUUCGGAUGCUGUGGAGGCAGGCUUCGGUGACGCGAUAGCGCCAACGUCCUCAACCUCCAAUGCAUCCCACCACAUGAUGAUACCUGAAGAACCUUGGUUUUUUG")
-5.83
>>> obs_value("GACCAAUCUGCCCUCAGAGCUCGAGAACAUCUUCGGAUGCAGACGAUGCAGGCUUCGGUGGCGCGAUAGCGCCAACGUCCUCAACCUCCAAUGCAUCCCACCACAUGAUGAUGCCUGAAGAGCCUUGGUUUUUUG")
-1.8
>>> obs_value("GACCAAUCUGCCCUCAGAGCUCGAGAACAUCUUCGGAUGCAGAGGAGGCAGGGUUCGGUGGCGCGAUAGCGCCAACGUCCUCAACCUCCAAUGCAUCCCACCACAUGAUGAUGUCUGAAGAGCCUUCGUUUUUUG")
-2.8
>>> obs_value("GACCAACCUGCCCUCAGAGCUCGAGAACAUCUUCGGUUGCCGAGGAUGCAGGGUUCGGUGGCGCAAUAGCGCCAACGUCCUCAAGCUCCAAUGCCUCCCACCACAUGAUGGUGCCUGUAGAGCCUUGGUUUUUUG")
-7.71
>>> obs_value("GACCAAUCUGCCCUCAGAGCUCGAGAACAUCUUCGGAUGCAGAGGAGGCAGGCUUCGGUGGCGCGAUAGCGCCAACGUCCGCAACCUCCAAUGUAUCCCACCACAUGAUGAUGCCUGAAGGGCCUUGGUUUUUUG")
-2.71
>>> obs_value("GACCUAUCUGCCCUCAGUGCUCGAGAACAUCUUCGGAUGCAGAGGAGGCAGGCUUCGGUGGCGCGAUAGCGCCAACGUCCUCAACCUCCAAUGCAUCCCACCACAUGAUGAUGCCUGAAGAGCCUUGGUUUUUUG")
-2.62
>>> obs_value("GACCAAUCUGCCCUCAGAGCUCGAGAACAUCUUCGGAUGCAGAGGAGGCAGGCUUCGGUAGCGCGAUAGCGCCAACGUCCUCAACCUCCAAUGCAUCCCACCACAUGAUGAGGCCUGAAAAGCCUUGGUUUUUUG")
-2.56
>>> obs_value("GACCAAUCUGCCCUCAGAGCUCGAGAACAUCUUCGGAUGCAGAGGAGGCAGGCUUCGGUGGCGCGAUAGCGCCAACGUCCUCAAGCUCCAAUGCAUCCCACCACAAGAUGAUGCCUGAAGAGCCUUGGUUUUUUG")
-1.05
>>> obs_value("GACCAAUCUGCCCUCAGAGCUCGAGAACAUCUUCGGAUGCAGAGUAGGCAGGCUUUGGUGGCGCGAUAGCGCCAACGUCCUCAACCUCCAAUGCAUCCCACCACAUGAUGAUGCCUGAAGUGCCUUGGUUUUUUG")
0.651
>>> obs_value("GUCCAAUCUGCCCUCAGAGCUCGAGAACAUCUUCGGAUGCAGAGGAGGCAGGCAUCGGUGGCGCGAUAGCGACAACGUCCUCAACCUCCAAUGCAUCCCAGCACAUGAUGAUGCCUGAAGAGCCUUGGAAUUUUG")
-2.15
>>> obs_value("GACCAAUCUGCCCUCAGAGCUCGAGACCAUCUUCGGAUGCAGAGGAGGUAGGCUUCGGUGUCGCGAUAGCGCCAACGUCCUCAACCUCCAACGCAUCCCACCACAUGAUGAUGCCUGAAGAGCCUUGGUUUUUUG")
-6.24
>>> obs_value("GACCAAUCUGCCCUCAGAGCUCGAGAACAUCUUCGGAUGCAGAGGAGGCAGGCUUCGGUGGCGCGAUAGCGCCAACGUCCUGAACCUCCAAUGCAUCCCAACACAUGAUGAUGCAUGAAGAGCCUUGGUUUUUUG")
-2.63
>>> obs_value("GACCAAUCUGCCCUCAGAGCUCGAGAACACCUUCGGAUGCAUAGGAGGCAGGCUUCGGUGGCGCGAUAGCGCCAAGGUCCUCAAACUCCAAUGCAUCCCACCACAUGAUGAUGCCUGAAGAAGCUUGGUUUUUUG")
-4.17
>>> obs_value("GACCAAUCUGCCCUCAGAGCUCGAGAACAUCUUCGGAUGCAGAGGACGCAGGCUUUGGUGGCGCGAUAGCGCCAACGUCCUCAACCUCCAAUGCAUCCCACCACAUGAUGAUGCCUGAAGAGCCUUGGUUUUUUG")
-1.01
>>> obs_value("GACCAAUGUGCCCUAAGAGCUCGAGAACAUCUUCGGAUGCAGAGGAGGCAGGCUUCGGUGGCGCGAUAACGCCAACGUCCUCAACCUCGAAUGCAUCCCACCACAUGAUGAUGCCUGAAGAGCCUUGGUUUUUUG")
-5.71
